B1: LINE1-full (parent)
chain: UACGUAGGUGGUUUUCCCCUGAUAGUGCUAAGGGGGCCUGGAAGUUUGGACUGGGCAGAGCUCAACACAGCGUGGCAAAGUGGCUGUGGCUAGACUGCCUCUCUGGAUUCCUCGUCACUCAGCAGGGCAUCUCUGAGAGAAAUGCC

- Variants of: B1
- test_protocol: self-cleavage, relative activity (ratio to wild type); higher = more cleavage; in vitro, sequencing; the parent is a self-cleaving ribozyme

# variant_description, self-cleavage
measured = [
    ("G49U G70A", 0.04),
    ("C76U A140G", 2.36),
    ("A6U A124U", 1.51),
    ("G70U C90G", 0.02),
    ("U5A U9A", 0),
    ("A43G C103U", 1.25),
    ("C123U A138G", 1.91),
    ("A77C U81C", 0),
    ("G58A A142G", 0),
    ("U47C U132C", 1.62),
    ("A77G C84U", 0.25),
    ("C38U U87C", 0.06),
    ("U91A A121G", 0.84),
    ("C3A G72A", 0.38),
    ("G82A U87C", 0.17),
    ("A57U U85C", 0.06),
    ("G36C U104A", 1.43),
    ("U62C C63U", 0.07),
    ("A78U A140C", 2.32),
    ("U100C U108C", 2.05),
    ("A22G U119A", 2.19),
    ("U12G U143C", 1.23),
    ("A65G A121U", 0.04),
    ("C76U U108C", 2.53),
    ("G93A C101A", 0.04),
    ("U46A G55A", 0.24),
    ("C38U A92G", 0.05),
    ("G88U A142G", 0),
    ("A31C U100C", 0.92),
    ("U5C U109A", 0.74),
    ("A69U U115A", 0.07),
    ("U119C A142U", 1.95),
    ("A67U U102A", 0.11),
    ("U12C U108A", 1.25),
    ("A57G C128U", 0.79),
    ("G55A A57G", 0.15),
    ("A117G U134A", 1.37),
    ("G21C U47A", 0.91),
    ("U5C A92G", 0),
    ("A79U U104C", 2.47),
    ("A24C A57G", 1.17),
    ("A22C U39C", 2.06),
    ("G21A C118U", 1.07),
    ("A78U U108C", 2.87),
    ("C28A C131G", 0.33),
    ("G48A G125A", 1.38),
]
